- Assay explanation: Anticancer human tumor 997537-175-T-J1-PDC patient-derived colon adenocarcinoma cell line growth inhibition [POLQ]
- Reported conditions: 997537-175-T-J1-PDC complex spheroid viability, combination with POLQ inhibitors; second compound 1 µM; first compound 10 µM; stronger effect = lower value
Binary call on viability, T/C with cut-off 90%: strictly below means Met, and equality or higher means Not met.

[[record]]
compound = "CNCc1ccc(-c2[nH]c3cc(F)cc4c3c2CCNC4=O)cc1 + COC1C(OC(N)=O)C(O)C(Oc2ccc3c(O)c(NC(=O)c4ccc(O)c(CC=C(C)C)c4)c(=O)oc3c2C)OC1(C)C"
class_assignment = "Met"

[[record]]
compound = "CCc1cc2c(N3CCc4c(cc(Cn5ccnc5)cc4-c4cn(C)nc4C(F)(F)F)C3=O)ccnc2c(OC)n1 + Nc1ccc(C#CCN(C(=O)Cc2ncc(C(F)(F)F)cc2C(F)(F)F)c2ccc(F)cc2)nn1"
class_assignment = "Met"

[[record]]
compound = "CC1COCCN1c1cc(-c2ccnn2C)c2ccnc(-c3ccn[nH]3)c2n1 (stereo not given) + Cc1cccc(N(C)C(=O)C2C(O)CCN2c2nc(C)cc(C(F)(F)F)c2C#N)c1"
class_assignment = "Met"

[[record]]
compound = "C=CC(=O)N1CCN(c2nc(=O)n(-c3c(C)ccnc3C(C)C)c3nc(-c4c(O)cccc4F)c(F)cc23)C(C)C1 (stereo not given) + Nc1ccc(C#CCN(C(=O)Cc2ncc(C(F)(F)F)cc2C(F)(F)F)c2ccc(F)cc2)nn1"
class_assignment = "Not met"

[[record]]
compound = "Nc1ccn(C2OC(CO)C(O)C2(F)F)c(=O)n1 (stereo not given) + Cc1cccc(N(C)C(=O)C2C(O)CCN2c2nc(C)cc(C(F)(F)F)c2C#N)c1"
class_assignment = "Met"

[[record]]
compound = "O=C(Nc1ccc(O)c(NS(=O)(=O)c2ccc(F)cc2)c1)c1ccc(-c2ccccc2)cc1 + COC1C(OC(N)=O)C(O)C(Oc2ccc3c(O)c(NC(=O)c4ccc(O)c(CC=C(C)C)c4)c(=O)oc3c2C)OC1(C)C"
class_assignment = "Not met"

[[record]]
compound = "CCc1cc2c(N3CCc4c(cc(Cn5ccnc5)cc4-c4cn(C)nc4C(F)(F)F)C3=O)cc(C)nc2c(OC)n1 + COC1C(OC(N)=O)C(O)C(Oc2ccc3c(O)c(NC(=O)c4ccc(O)c(CC=C(C)C)c4)c(=O)oc3c2C)OC1(C)C"
class_assignment = "Met"

[[record]]
compound = "CC1COCCN1c1cc(C2(S(C)(=N)=O)CC2)nc(-c2ccnc3[nH]ccc23)n1 (stereo not given) + COC1C(OC(N)=O)C(O)C(Oc2ccc3c(O)c(NC(=O)c4ccc(O)c(CC=C(C)C)c4)c(=O)oc3c2C)OC1(C)C"
class_assignment = "Met"


Consider the record given below.
Task: Field: below-cutoff. Rule: recorded viability, T/C strictly less than 90%. Subject: COc1ccc([C@@H](O)c2cc(-c3ncnc4cc(N5CCOCC5)ccc34)c(F)cc2Cl)nn1 + COC1C(OC(N)=O)C(O)C(Oc2ccc3c(O)c(NC(=O)c4ccc(O)c(CC=C(C)C)c4)c(=O)oc3c2C)OC1(C)C
Result: Met

---

- Assay explanation: Anticancer human tumor 997537-175-T-J1-PDC cell line growth inhibition [POLQ];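 further: luminescence signal used as a surrogate for viable cells; spheroids exposed to drugs for seven days before readout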
- Reported conditions: 997537-175-T-J1-PDC complex spheroid viability, combination with POLQ inhibitors; second compound 0.1 µM; first compound 0.1 µM; stronger effect = lower value
Provide the reported viability, T/C of each item.
Give bare numbers, in %.

[[record]]
molecule = "C=CCn1c(=O)c2cnc(Nc3ccc(N4CCN(C)CC4)cc3)nc2n1-c1cccc(C(C)(C)O)n1 + COC1C(OC(N)=O)C(O)C(Oc2ccc3c(O)c(NC(=O)c4ccc(O)c(CC=C(C)C)c4)c(=O)oc3c2C)OC1(C)C"
metric = "viability, T/C"
value_reported = 92.2

[[record]]
molecule = "CCc1cc2c(N3CCc4c(cc(Cn5ccnc5)cc4-c4cn(C)nc4C(F)(F)F)C3=O)ccnc2c(OC)n1 + Nc1ccc(C#CCN(C(=O)Cc2ncc(C(F)(F)F)cc2C(F)(F)F)c2ccc(F)cc2)nn1"
metric = "viability, T/C"
value_reported = 98.2

[[record]]
molecule = "CC1COCCN1c1cc(-c2ccnn2C)c2ccnc(-c3ccn[nH]3)c2n1 (stereo unspecified) + Cc1cccc(N(C)C(=O)C2C(O)CCN2c2nc(C)cc(C(F)(F)F)c2C#N)c1"
metric = "viability, T/C"
value_reported = 87


For each of the molecules below, state viability, T/C.
1. O=c1[nH]cc(F)c(=O)[nH]1 + COC1C(OC(N)=O)C(O)C(Oc2ccc3c(O)c(NC(=O)c4ccc(O)c(CC=C(C)C)c4)c(=O)oc3c2C)OC1(C)C
2. Nc1ccn(C2OC(CO)C(O)C2(F)F)c(=O)n1 (stereo unspecified) + COC1C(OC(N)=O)C(O)C(Oc2ccc3c(O)c(NC(=O)c4ccc(O)c(CC=C(C)C)c4)c(=O)oc3c2C)OC1(C)C
3. O=C(c1cc(Cc2n[nH]c(=O)c3ccccc23)ccc1F)N1CCN(C(=O)C2CC2)CC1 + Cc1cccc(N(C)C(=O)C2C(O)CCN2c2nc(C)cc(C(F)(F)F)c2C#N)c1
4. CC(C)n1c(=O)n(C)c2cnc3cc(F)c(-c4ccc(OCCCN5CCCCC5)nc4)cc3c21 + COC1C(OC(N)=O)C(O)C(Oc2ccc3c(O)c(NC(=O)c4ccc(O)c(CC=C(C)C)c4)c(=O)oc3c2C)OC1(C)C
5. O=c1[nH]cc(F)c(=O)[nH]1 + Cc1cccc(N(C)C(=O)C2C(O)CCN2c2nc(C)cc(C(F)(F)F)c2C#N)c1
6. CC1COCCN1c1cc(C2(O)CC3CCC(C2)O3)c2cnn(-c3ccn[nH]3)c2n1 (stereo unspecified) + COC1C(OC(N)=O)C(O)C(Oc2ccc3c(O)c(NC(=O)c4ccc(O)c(CC=C(C)C)c4)c(=O)oc3c2C)OC1(C)C

Result:
[104, 106, 108, 102, 87.7, 81.3]

For each of the molecules below, state viability, T/C.
1. O=c1[nH]cc(F)c(=O)[nH]1 + Nc1ccc(C#CCN(C(=O)Cc2ncc(C(F)(F)F)cc2C(F)(F)F)c2ccc(F)cc2)nn1
2. O=C(c1cc(Cc2n[nH]c(=O)c3ccccc23)ccc1F)N1CCN(C(=O)C2CC2)CC1 + COC1C(OC(N)=O)C(O)C(Oc2ccc3c(O)c(NC(=O)c4ccc(O)c(CC=C(C)C)c4)c(=O)oc3c2C)OC1(C)C
3. CC1COCCN1c1cc(C2(O)CC3CCC(C2)O3)c2cnn(-c3ccn[nH]3)c2n1 (stereo unspecified) + Nc1ccc(C#CCN(C(=O)Cc2ncc(C(F)(F)F)cc2C(F)(F)F)c2ccc(F)cc2)nn1

Result:
99.8
91.7
73.5

For each of the molecules below, state viability, T/C.
1. CCc1cc2c(N3CCc4c(cc(Cn5ccnc5)cc4-c4cn(C)nc4C(F)(F)F)C3=O)cc(C)nc2c(OC)n1 + Cc1cccc(N(C)C(=O)C2C(O)CCN2c2nc(C)cc(C(F)(F)F)c2C#N)c1
2. C#Cc1c(F)ccc2cc(O)cc(-c3ncc4c(N5CC6CCC(C5)N6)nc(OCC56CCCN5CC(F)C6)nc4c3F)c12 (stereo unspecified) + Nc1ccc(C#CCN(C(=O)Cc2ncc(C(F)(F)F)cc2C(F)(F)F)c2ccc(F)cc2)nn1
3. O=C(Nc1ccc(O)c(NS(=O)(=O)c2ccc(F)cc2)c1)c1ccc(-c2ccccc2)cc1 + Nc1ccc(C#CCN(C(=O)Cc2ncc(C(F)(F)F)cc2C(F)(F)F)c2ccc(F)cc2)nn1
4. CC1COCCN1c1cc(-c2ccnn2C)c2ccnc(-c3ccn[nH]3)c2n1 (stereo unspecified) + COC1C(OC(N)=O)C(O)C(Oc2ccc3c(O)c(NC(=O)c4ccc(O)c(CC=C(C)C)c4)c(=O)oc3c2C)OC1(C)C
5. C=CCn1c(=O)c2cnc(Nc3ccc(N4CCN(C)CC4)cc3)nc2n1-c1cccc(C(C)(C)O)n1 + Cc1cccc(N(C)C(=O)C2C(O)CCN2c2nc(C)cc(C(F)(F)F)c2C#N)c1

Result:
105
110
91.9
81.5
88.8
